Read-out: BCL2L11 (gene 10018)
Assay: LTEA_HepaRG_BCL2L11: Life Technologies and Expression Analysis (LTEA) Assay for Bcl-2 (BCL2L11) gene using HepaRG (AID 2283473)
Conditions: mRNA level, 48 h; actives raise or lower the signal
The source made the active and inactive calls. The calls were made as follows: active = hit-call score of the fitted dose curve at least 0.9, where 1 is the maximum; inactive = score below 0.9.
Hello, when you answer, please use one of the following outcomes: t = active, f = inactive

Task item: I would be grateful if you could indicate the recorded call for "CCCOc1sc(C(=O)N2CCC(c3cc(CN)ccc3F)CC2)c(C)c1Br" .
Reply: f

Task item: Recorded test outcome, item "CCCCOCCO"
Reply: f

Task item: Lab log entry: "CCCCCCC(=O)O" — outcome as called in the assay?
Reply: f

Task item: Query: recorded result category for CCC(C)(C)C1CCC(O)CC1 (stereo unspecified) in this test
Reply: f

Task item: Give the logged outcome of this assay for the following molecule: "CCCOC(=O)c1ccc(O)cc1"
Reply: f

Task item: Outcome logged for "CC(=O)CC(C)(C)O" in this assay:
Reply: f

Task item: Entry "CCCCCCCCC(=O)O" : call = ?
Reply: f

Task item: // return assay outcome for "CCOC(=O)CC(O)(CC(=O)OCC)C(=O)OCC"
Reply: f

Task item: Give the logged outcome of this assay for the following molecule: "CC(C)(C)CC(C)(C)c1ccc(O)c(-n2nc3ccccc3n2)c1"
Reply: f

Task item: Which outcome was entered for the molecule OC1CCC(C2CCCCC2)CC1 (stereo unspecified) in this test?
Reply: f

Task item: Hi, sorry to bother you, what did the test record for CCc1nn(C2CCCCC2)c2cc(C3(C#N)CCC(C(=O)O)CC3)ccc12 (stereo unspecified) ?
Reply: t

Task item: So what was the verdict on "CC(C)(C)c1cccc(C(C)(C)C)c1O" in this test?
Reply: f

Task item: In this assay, the call recorded for "CC[C@H](C)[C@@H](C(=O)O)n1sc2ccccc2c1=O" was what?
Reply: f

Task item: Please share the test call associated with "CC[C@H](c1ccc(O)cc1)[C@@H](CC)c1ccc(O)cc1" .
Reply: t

Task item: # outcome recorded in this test, key = "CN1CCC[C@H]1c1cccnc1"
Reply: f

Task item: Please indicate how the test categorized "CC#C[C@]1(O)CC[C@H]2[C@@H]3CCC4=CC(=O)CCC4=C3[C@@H](c3ccc(N(C)C)cc3)C[C@@]21C" .
Reply: t

Task item: For "CC1=C(/C=C/C(C)=C/C=C/C(C)=C/C(=O)O)C(C)(C)CCC1" , what call appears in the results of this test?
Reply: f

Task item: I'd appreciate the recorded outcome for "CCCCCCCCOC(=O)CCCCCCCCC(=O)OCCCCCCCC" from this test.
Reply: f

Task item: I'd appreciate the recorded outcome for NC(=O)N1C(=O)C(C(=O)c2cc(Cl)cs2)c2cc(F)c(Cl)cc21 (stereo unspecified) from this test.
Reply: f

Task item: What classification did "CC(C)CCCCCCOC(=O)CCCCC(=O)OCCCCCCC(C)C" end up with in this test?
Reply: f

Task item: Field: outcome | Entry: "Cc1cc(C)c(O)c(C)c1"
Reply: f

Task item: Identify the outcome logged in this assay for the molecule shown: "O=C(OCCOCCOC(=O)c1ccccc1)c1ccccc1"
Reply: f

Task item: Test call for this molecule, please: CCCCC(CC)COC(=O)CCCCC(=O)OCc1ccccc1 (stereo unspecified)
Reply: f

Task item: Fill in: this test's call for "Cc1cc(CCN2CCN(c3nsc4ccccc34)CC2)cc2c1NC(=O)CC2(C)C" is ___
Reply: f

Task item: Fill in: this test's call for CCCCC(CC)COC(=O)CCCCC(=O)OCC(CC)CCCC (stereo unspecified) is ___
Reply: f

Task item: Hi team, can someone confirm the assay call for "Cc1oc(-c2ccccc2)nc1CCOc1ccc(C[C@H](Nc2ccccc2C(=O)c2ccccc2)C(=O)O)cc1" ?
Reply: t

* * *

Target: human Phosphodiesterase 5 (PDE5), PDE5A (gene 8654) (UniProt O76074)
Experiment: NVS_ENZ_hPDE5: NovaScreen (NVS) Enzymatic Assay for human Phosphodiesterase 5 (PDE5) (AID 2283194)
Inconclusive results are not listed. Active and inactive are the calls of the source. How the source made its calls: active means hit-call score of the fitted dose curve at least 0.9, where 1 is the maximum; inconclusive means response in the unintended direction; inactive means score below 0.9.
property.label: AC50

Worked cases, AC50 given:
| compound | AC50 |
| --- | --- |
| CCN(CC)CCNc1ccc(CNC=O)c2sc3ccc(OC)cc3c(=O)c12 | 6.82 µM (active) |
| CC(O)CO (stereo unspecified) | inactive |
| CCc1nn(C2CCCCC2)c2cc(C3(C#N)CCC(C(=O)O)CC3)ccc12 (stereo unspecified) | inactive |
| CCCCCCC(=O)O | inactive |
| O=C(O)Cc1cc(I)c(Oc2cc(I)c(O)c(I)c2)c(I)c1 | 9.05 µM (active) |

Turning now to a further record.
Task item: Entry "OCCC(F)(F)C(F)(F)C(F)(F)C(F)(F)C(F)(F)C(F)(F)F" : reported AC50 = ?
Reply: inactive

* * *

Test: Tanguay_ZF_120hpf_YSE_legacy: (Legacy) Oregon State University Tanguay Lab 120 Hour Post-fertilization zebrafish Assay for Yolk Sac Edema (AID 2283634)
Results filed as inconclusive are left out. The source made the active and inactive calls. How the source made its calls: active means hit-call score of the fitted dose curve at least 0.9, where 1 is the maximum; inconclusive means response in the unintended direction; inactive means score below 0.9.
Pick from YES (active), NO (inactive) when you respond.

Task item: Look up the recorded call for OC1CCC(C2CCCCC2)CC1 (stereo not drawn) in this test.
Reply: NO

Task item: Each compound tested received a call. Report the one for "CC(C)(C)CC(C)(C)c1ccc(O)c(-n2nc3ccccc3n2)c1" .
Reply: NO

Task item: // param item: "CC(=O)NC1(c2cccc(F)c2)CCN(CC[C@@]2(c3ccc(Cl)c(Cl)c3)CN(c3ccccc3)C(=O)CO2)CC1" ; yields the recorded call
Reply: NO

Task item: Recorded test call requested for "Oc1cccc(O)c1"
Reply: NO

Task item: Assay outcome for N#C[C@@H]1CC(F)(F)CN1C(=O)CNC1CC2CCC(C1)N2c1ncccn1 (stereo partly drawn) : what was it?
Reply: NO

Task item: Given "CN1CCC[C@H]1c1cccnc1" , state the outcome it received in this test.
Reply: NO

Task item: So what was the verdict on "O=c1c(-c2ccc(O)cc2)coc2cc(O)ccc12" in this test?
Reply: NO

Task item: For "CCCCCCCCCCCCN1CCCC1=O" , which call appears in the assay record?
Reply: YES

Task item: What was the test verdict on "OC1CCCCC1" ?
Reply: NO

Task item: How did this test come out for "CCCOC(=O)c1ccc(O)cc1" ?
Reply: YES

Task item: Write down the call the test reported for this compound. Item: "CCCCCCCC(=O)O"
Reply: NO

Task item: What is the recorded call for this compound in the test? "CCCCCCCCC(=O)O"
Reply: NO

Task item: How was "CCCCCCCCCCCCCCCS(=O)(=O)Oc1ccccc1" classified in this test?
Reply: NO

* * *

Molecular target: Androgen Receptor/SRC-1 Co-activator, AR (gene 367)
Assay: OT_AR_ARSRC1_0480: Odyssey Thera (OT) 8-hour HEK293T Protein-Complementation Assay for Androgen Receptor/SRC-1 Co-activator (AID 2283354);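 also: hits raise the complementation signal above DMSO so AC50 marks enhancers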
Records with an inconclusive call do not appear. Active and inactive are the calls of the source. The calls were made as follows: active = hit-call score of the fitted dose curve at least 0.9, where 1 is the maximum; inconclusive = response in the unintended direction; inactive = score below 0.9.
// one of True (active), False (inactive), no free text

Task item: Per the assay record, what outcome was assigned to NC(=O)N1C(=O)C(C(=O)c2cc(Cl)cs2)c2cc(F)c(Cl)cc21 (stereo not drawn) ?
Reply: False

Task item: Hi team, can someone confirm the assay call for "c1ccc2c(c1)ccc1ccccc12" ?
Reply: False

Task item: Record lookup: outcome of this test for "Oc1cc2ccccc2c2ccccc12" ?
Reply: True

Task item: Record request — test call for "CCCCCCCCCCCCc1ccccc1S(=O)(=O)O"
Reply: False

Task item: Returns: the outcome recorded for N#C[C@@H]1CC(F)(F)CN1C(=O)CNC1CC2CCC(C1)N2c1ncccn1 (stereo partly drawn) in this assay.
Reply: False

Task item: Per the records of this test, what outcome belongs to "OCCC(F)(F)C(F)(F)C(F)(F)C(F)(F)C(F)(F)C(F)(F)C(F)(F)C(F)(F)F" ?
Reply: False

Task item: Kindly provide the recorded test outcome for the following molecule: "O=c1c(-c2ccc(O)cc2)coc2cc(O)ccc12"
Reply: False

Task item: Short answer needed: outcome of this test for "O=C(O)c1ccccc1C(c1ccc(O)cc1)c1ccc(O)cc1" ?
Reply: False

* * *

Biological target: Estrogen receptor beta (Homo sapiens) (UniProt Q92731)
Sequence (Q92731 whole entry, looked up, the tested form may be a part): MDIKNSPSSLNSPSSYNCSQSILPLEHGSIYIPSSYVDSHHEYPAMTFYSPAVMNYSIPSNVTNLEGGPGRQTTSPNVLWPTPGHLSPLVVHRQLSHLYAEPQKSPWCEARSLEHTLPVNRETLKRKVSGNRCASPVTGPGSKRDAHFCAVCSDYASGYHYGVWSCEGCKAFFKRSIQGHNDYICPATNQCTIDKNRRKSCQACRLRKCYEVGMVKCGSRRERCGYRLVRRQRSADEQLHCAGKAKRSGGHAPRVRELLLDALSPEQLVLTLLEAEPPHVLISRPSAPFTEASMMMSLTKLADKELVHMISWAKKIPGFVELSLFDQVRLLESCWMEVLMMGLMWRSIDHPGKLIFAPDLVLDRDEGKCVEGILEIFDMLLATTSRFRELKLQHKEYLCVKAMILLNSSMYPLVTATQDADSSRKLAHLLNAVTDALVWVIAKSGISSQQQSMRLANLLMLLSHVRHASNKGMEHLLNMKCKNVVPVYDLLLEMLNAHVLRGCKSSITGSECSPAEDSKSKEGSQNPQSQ
Assay: OT_ER_ERbERb_1440: Odyssey Thera (OT) 24-hour HEK293T Protein-Complementation Assay for Estrogen Receptor-beta/-beta Homodimer (AID 2283380);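 also: fluorescence gain from ER beta LBD homodimer complementation read by laser scanning cytometry; scored as signal increase over DMSO baseline for both agonists and antagonists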
Activity calls are given as the source filed them. How the source made its calls: active means hit-call score of the fitted dose curve at least 0.9, where 1 is the maximum; inconclusive means response in the unintended direction; inactive means score below 0.9.
Parameter call: string, one of 1 (yes) for active, 0 (no) for inactive

Task item: Which outcome did this test record for the compound "c1ccc2c(c1)Cc1ccccc1-2" ?
Reply: 0 (no)

Task item: Hi team, can someone confirm the assay call for "CCCCCCC(=O)O" ?
Reply: 0 (no)

Task item: Please state the recorded outcome for this compound: "CC(C)(C)c1ccc(O)c(C(C)(C)C)c1"
Reply: 0 (no)

Task item: # fetch the recorded call for COCC(C)OCC(C)O (configuration not stated) here
Reply: 0 (no)

Task item: Hey, what did the test say about N#C[C@@H]1CC(F)(F)CN1C(=O)CNC1CC2CCC(C1)N2c1ncccn1 (some centres not stated) ?
Reply: 0 (no)

Task item: Status in this test for "CCCCCCCCCCCCCCCS(=O)(=O)Oc1ccccc1" ?
Reply: 0 (no)

Task item: Please share the test call associated with "CC(C)(C)c1cc(C(C)(C)C)c(O)c(C(C)(C)C)c1" .
Reply: 1 (yes)

Task item: Per the assay record, what outcome was assigned to "O=C(O)c1ccccc1C(c1ccc(O)cc1)c1ccc(O)cc1" ?
Reply: 0 (no)

Task item: What was the test verdict on "CCCCCCCC(=O)O" ?
Reply: 1 (yes)

Task item: Any idea what this test logged for "Oc1cccc(O)c1" ?
Reply: 1 (yes)

Task item: Could you check what this test reported for NC(=O)N1C(=O)C(C(=O)c2cc(Cl)cs2)c2cc(F)c(Cl)cc21 (configuration not stated) ?
Reply: 0 (no)

Task item: Recorded test outcome, item "NC(=O)N(O)[C@@H]1C=C[C@H](Oc2cccc(Oc3ccc(F)cc3)c2)C1"
Reply: 1 (yes)

Task item: Please let me know the test result on file for "O=C(O)Cc1cc(I)c(Oc2cc(I)c(O)c(I)c2)c(I)c1" .
Reply: 0 (no)

Task item: // return assay outcome for "C[C@@H]1C[C@H]2[C@@H]3CCC4=CC(=O)C=C[C@]4(C)[C@@]3(F)[C@@H](O)C[C@]2(C)[C@@]1(O)C(=O)COP(=O)(O)O"
Reply: 0 (no)

Task item: Recorded test outcome, item CCc1nn(C2CCCCC2)c2cc(C3(C#N)CCC(C(=O)O)CC3)ccc12 (configuration not stated)
Reply: 0 (no)

Task item: Hi, sorry to bother you, what did the test record for "CCCCCCCCC(=O)O" ?
Reply: 0 (no)

Task item: What call does the record list for "Oc1cc2ccccc2c2ccccc12" ?
Reply: 0 (no)

Task item: Which result was noted for this compound in the test: "CN1CCC[C@H]1c1cccnc1"
Reply: 0 (no)

Task item: Field: outcome | Entry: CCc1ccc(CCOc2ccc(CC3SC(=O)NC3=O)cc2)nc1 (configuration not stated)
Reply: 0 (no)

Task item: For "OCCC(F)(F)C(F)(F)C(F)(F)C(F)(F)C(F)(F)C(F)(F)F" , which call appears in the assay record?
Reply: 0 (no)

Task item: Write down the call the test reported for this compound. Item: "CCOC(=O)CC(O)(CC(=O)OCC)C(=O)OCC"
Reply: 0 (no)

Task item: Record lookup: outcome of this test for CCCCC(CC)COC(=O)CCCCC(=O)OCC(CC)CCCC (configuration not stated) ?
Reply: 0 (no)

Task item: // outcome(item) with item = "COc1ccc([N+](=O)[O-])cc1N"
Reply: 0 (no)

Task item: What was the test verdict on "CCCCCCCCCCCCN1CCCC1=O" ?
Reply: 0 (no)

Task item: Returns: the outcome recorded for "CC(C)(C)CC(C)(C)c1ccc(O)c(-n2nc3ccccc3n2)c1" in this assay.
Reply: 0 (no)

Task item: Kindly provide the recorded test outcome for the following compound: "CC(=O)CC(C)(C)O"
Reply: 0 (no)

Task item: Query: recorded result category for CCCCC(CC)COC(=O)CCCCC(=O)OCc1ccccc1 (configuration not stated) in this test
Reply: 0 (no)
